- test.target: UniProtKB O43614
- assay.protocol: Measurement of orexin type 2 receptor agonist activity (Experimental Example 2-1, FLIPR TETRA, intracellular Ca2+)
- Type: cell-based
- details: CHO dhfr- cells expressing hOX2R; agonist activity, 10 nM human orexin B = 100%
measured.property: pEC50
Answers are plain numbers, as −log10 of the molar value.

The following compounds each have a reported value; give each one's pEC50.
1. COC(=O)N1CCC[C@H](NS(C)(=O)=O)[C@@H]1CO[C@H]1CC[C@@H](c2ccccc2C(F)(F)F)CC1 [Example 32]
2. CS(=O)(=O)N[C@H]1CCCN[C@H]1CO[C@H]1CC[C@@H](c2ccccc2F)CC1 (relative stereo) [Example 115]

[reply]
[7.82, 6.11]

The following compounds each have a reported value; give each one's pEC50.
1. CCNC(=O)N1CCC[C@H](NS(C)(=O)=O)[C@@H]1CO[C@H]1CC[C@@H](C(C)C)CC1 [Example 2]
2. CS(=O)(=O)N[C@H]1CCCN[C@H]1CO[C@H]1CC[C@@H](c2cc(F)cc(F)c2)CC1 [Example 7]

[reply]
8.72
6.60

====

- test.target: human orexin type 2 receptor (hOX2R) (Homo sapiens (Human), UniProt O43614)
- Sequence (O43614 whole entry): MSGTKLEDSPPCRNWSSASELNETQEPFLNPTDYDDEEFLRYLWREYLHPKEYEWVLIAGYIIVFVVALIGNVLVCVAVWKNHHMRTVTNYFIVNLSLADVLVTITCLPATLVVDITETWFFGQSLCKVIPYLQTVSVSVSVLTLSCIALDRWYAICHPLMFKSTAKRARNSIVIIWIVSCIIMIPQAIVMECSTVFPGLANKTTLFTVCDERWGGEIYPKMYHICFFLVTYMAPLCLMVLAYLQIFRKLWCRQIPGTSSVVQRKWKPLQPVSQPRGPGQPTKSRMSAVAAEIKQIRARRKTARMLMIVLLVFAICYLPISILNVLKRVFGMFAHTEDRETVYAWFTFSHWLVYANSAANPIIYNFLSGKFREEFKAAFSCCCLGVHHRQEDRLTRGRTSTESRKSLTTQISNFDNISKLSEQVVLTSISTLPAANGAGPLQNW
- assay.protocol: Measurement of orexin type 2 receptor agonist activity (Experimental Example 2-1, FLIPR TETRA, intracellular Ca2+)
- Assay type: cell-based
- details: CHO dhfr- cells expressing hOX2R, FLIPR TETRA, Fluo-4AM
pEC50: −log10 of the molar value.
Criterion: pEC50 meeting or surpassing 6. Met: true. Not met: false.

Use the examples below as a reference point.
COC(=O)N1CCC[C@H](NS(=O)(=O)N(C)C)[C@@H]1CO[C@H]1CC[C@@H](c2ccccc2)CC1	true
CC(=O)N1CCC[C@H](NS(C)(=O)=O)[C@@H]1CO[C@H]1CC[C@@H](c2cccc(OC(F)(F)F)c2)CC1 (relative stereo)	false
CS(=O)(=O)N[C@H]1CCCN(C(=O)C2CC2)[C@H]1CO[C@H]1CC[C@@H](c2ccccc2OC(F)(F)F)CC1 (relative stereo)	true
CS(=O)(=O)N[C@H]1CCCN(C(=O)C2CC2)[C@H]1COC1CCN(c2cccc(F)c2Cl)CC1 (relative stereo)	false
CCOC(=O)N1CCC[C@H](NS(C)(=O)=O)[C@@H]1COC1CCN(c2ccccc2F)CC1 (relative stereo)	false

[ask] Entry CS(=O)(=O)N[C@H]1CCCN(C(=O)Cc2nccs2)[C@H]1CO[C@H]1CC[C@@H](c2ccccc2)CC1 (relative stereo) : is its pEC50 no less than 6?
[reply] true

====

- test.target: human orexin type 2 receptor (hOX2R) (Homo sapiens (Human))
- assay.protocol: Measurement of orexin type 2 receptor agonist activity (Experimental Example 2-1, FLIPR TETRA, intracellular Ca2+)
- Format: cell-based
- details: CHO dhfr- cells expressing hOX2R, FLIPR TETRA, Fluo-4AM; read-out: Emax (%)
- Source text: To obtain a cell clone stably expressing human orexin type 2 receptor, human orexin type 2 receptor cDNA was inserted into pcDNA3.1(+) plasmid vector (Invitrogen), and a plasmid DNA for expression of human orexin type 2 receptor (pcDNA3.1(+)/hOX2R) was cloned. The plasmid DNA was introduced into CHO-dhfr cell by an electroporation method, and human orexin type 2 receptor expressing clone cells were obtained by limiting dilution method by using G418 drug resistance as a selection marker. […]
Please provide measured Emax for the entries that follow.
One number for each entry, in %.

Some solved cases for reference:
CC(OC(=O)N1CCC[C@H](NS(C)(=O)=O)[C@@H]1COC1CCN(c2ncccn2)CC1)C(F)(F)F (relative stereo) [Example 313]	95
[2H]C([2H])([2H])OC(=O)N1CCC[C@H](NS(C)(=O)=O)[C@@H]1CO[C@H]1CC[C@@H](c2ccccc2)CC1 [Example 191]	107

[ask] What value of measured Emax is listed for CC(C)(C)OC(=O)N1CCC[C@H](NS(C)(=O)=O)[C@@H]1CO[C@H]1CC[C@@H](c2ccccc2)CC1 (relative stereo) [Example 155] ?
[reply] 95

====

- test.target: human orexin type 2 receptor (hOX2R) (Homo sapiens (Human), UniProt O43614)
- assay.protocol: Measurement of orexin type 2 receptor agonist activity (Experimental Example 2-1, FLIPR TETRA, intracellular Ca2+)
- Type: cell-based
- details: value at 30 uM concentration; orexin B as full agonist = 100%; CHO dhfr- cells expressing hOX2R
measured.property: Emax at 30 µM (%)
One number for each entry, in %.

Some solved cases for reference:
CC(C)[C@H]1CC[C@@H](OC[C@H]2[C@@H](NS(C)(=O)=O)CCCN2C(=O)C2CN(S(C)(=O)=O)C2)CC1 (relative stereo)	74
CC(C)[C@H]1CC[C@@H](OC[C@H]2[C@@H](NS(C)(=O)=O)CCCN2C(=O)C2CCC(=O)N2)CC1 (stereo partly drawn)	82

With those in mind, consider the next compound.
[ask] I'm curious: which Emax at 30 µM was measured for CC(C)[C@H]1CC[C@@H](OC[C@H]2[C@@H](NS(C)(=O)=O)CCCN2S(C)(=O)=O)CC1 (relative stereo) tested on human orexin type 2 receptor (hOX2R) (Homo sapiens (Human), UniProt O43614)?
[reply] 74

====

- test.target: UniProt O43614
- assay.protocol: Measurement of orexin type 2 receptor agonist activity (Experimental Example 2-1, FLIPR TETRA, intracellular Ca2+)
- Assay type: cell-based
- details: CHO dhfr- cells expressing hOX2R, FLIPR TETRA, Fluo-4AM
- Source text: To obtain a cell clone stably expressing human orexin type 2 receptor, human orexin type 2 receptor cDNA was inserted into pcDNA3.1(+) plasmid vector (Invitrogen), and a plasmid DNA for expression of human orexin type 2 receptor (pcDNA3.1(+)/hOX2R) was cloned. The plasmid DNA was introduced into CHO-dhfr cell by an electroporation method, and human orexin type 2 receptor expressing clone cells were obtained by limiting dilution method by using G418 drug resistance as a selection marker. […]
measured.property: log10 of EC50 (log10 of the value in nM)
log10 EC50, nM

Some solved cases for reference:
CS(=O)(=O)N[C@H]1CCCN(C(=O)CO)[C@H]1CO[C@H]1CC[C@@H](c2ccccc2)CC1 [Example 185]	1.32
CC(OC(=O)N1CCC[C@H](NS(C)(=O)=O)[C@@H]1COC1CCN(c2ncccn2)CC1)C(F)(F)F (relative stereo) [Example 313]	2.43
CCNC(=O)N1CCC[C@H](NS(C)(=O)=O)[C@@H]1CO[C@H]1CC[C@@H](c2cccc(OC(F)(F)F)c2)CC1 (relative stereo) [Example 300]	0.99
COC(=O)N1CCC[C@H](NS(C)(=O)=O)[C@@H]1CO[C@H]1CC[C@@H](c2ccn(C)n2)CC1 (relative stereo) [Example 154]	3.38
CS(=O)(=O)N[C@H]1CCCN[C@H]1CO[C@H]1CC[C@@H](c2ccccc2F)CC1 [Example 260]	2.74

The following molecules each have a reported value; give each one's log10 of EC50.
1. COC(=O)N1CCC[C@H](NS(C)(=O)=O)[C@@H]1COC1CCN(c2ccccc2Cl)CC1 (relative stereo) [Example 167]
2. CCc1ccccc1[C@H]1CC[C@@H](OC[C@@H]2NCCC[C@@H]2NS(C)(=O)=O)CC1 (relative stereo) [Example 311]
3. CS(=O)(=O)N[C@H]1CCCN(C(=O)C2CC2)[C@H]1CO[C@H]1CC[C@@H](c2ncccn2)CC1 (relative stereo) [Example 328]

[reply]
3.38
3.51
3.85

The following molecules each have a reported value; give each one's log10 of EC50.
1. CCc1ccccc1[C@H]1CC[C@@H](OC[C@H]2[C@@H](NS(C)(=O)=O)CCCN2C(C)=O)CC1 [Example 312]
2. COC(=O)N1CCC[C@H](NS(C)(=O)=O)[C@@H]1CO[C@H]1CC[C@@H](c2ccccc2OC)CC1 [Example 277]
3. CC(=O)N1CCC[C@H](NS(C)(=O)=O)[C@@H]1CO[C@H]1CC[C@@H](c2ccn(C)n2)CC1 (relative stereo) [Example 158]
4. CS(=O)(=O)N[C@H]1CCCN(C(=O)C2CC2)[C@H]1COC1CCN(c2ccccc2)CC1 (relative stereo) [Example 247]
5. COC(=O)N1CCC[C@H](NS(C)(=O)=O)[C@@H]1COC1CCN(c2c(Cl)cccc2Cl)CC1 (relative stereo) [Example 186]
6. CCNC(=O)N1CCC[C@H](NS(C)(=O)=O)[C@@H]1CO[C@H]1CC[C@@H](c2ccccc2C(F)(F)F)CC1 [Example 282]

[reply]
[1.51, 0.46, 3.20, 2.98, 3.52, -0.26]

The following molecules each have a reported value; give each one's log10 of EC50.
1. CS(=O)(=O)N[C@H]1CCCN(C(=O)C2CC2)[C@H]1COC1CCN(c2ncccn2)CC1(F)F (relative stereo) [Example 211]
2. CC(C)C(=O)N1CCC[C@H](NS(C)(=O)=O)[C@@H]1COC1CCN(c2ccccc2F)CC1 (relative stereo) [Example 224]
3. CC(C)OC(=O)N1CCC[C@H](NS(C)(=O)=O)[C@@H]1CO[C@H]1C[C@@H](c2ccccc2)C1 (relative stereo) [Example 307]
4. CS(=O)(=O)N[C@H]1CCCN(C(=O)C2CC2)[C@H]1COC1CCC(c2ccccn2)CC1 (relative stereo) [Example 251]

[reply]
1: 3.04; 2: 3.23; 3: 3.20; 4: 2.38

The following molecules each have a reported value; give each one's log10 of EC50.
1. CC(C)CC(=O)N1CCC[C@H](NS(C)(=O)=O)[C@@H]1COC1CCN(c2ccccc2F)CC1 (relative stereo) [Example 230]
2. CCNC(=O)N1CCC[C@H](NS(C)(=O)=O)[C@@H]1CO[C@H]1CC[C@@H](c2cccc(F)c2)CC1 [Example 148]

[reply]
[3.41, -1.28]

Where do the numbers come from? From patent US10287305B2.
